# assaySystem: Cytochrome P450 2C19 (Homo sapiens, UniProt P33261)
# Sequence (P33261 whole entry): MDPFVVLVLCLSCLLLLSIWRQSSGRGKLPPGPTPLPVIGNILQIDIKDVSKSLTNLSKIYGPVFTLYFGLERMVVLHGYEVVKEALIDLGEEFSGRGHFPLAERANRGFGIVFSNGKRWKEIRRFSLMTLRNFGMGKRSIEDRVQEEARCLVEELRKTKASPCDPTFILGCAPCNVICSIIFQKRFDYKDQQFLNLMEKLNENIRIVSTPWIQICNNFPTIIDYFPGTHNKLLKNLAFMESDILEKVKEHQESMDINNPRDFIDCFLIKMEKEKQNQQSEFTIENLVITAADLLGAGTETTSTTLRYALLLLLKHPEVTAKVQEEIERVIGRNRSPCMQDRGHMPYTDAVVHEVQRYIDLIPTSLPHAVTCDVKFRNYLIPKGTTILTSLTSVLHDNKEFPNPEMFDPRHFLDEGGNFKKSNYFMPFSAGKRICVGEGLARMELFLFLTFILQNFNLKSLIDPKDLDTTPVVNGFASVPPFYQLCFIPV
reportedMetric: IC50

- molecularString: "CC(C)(O)Cn1cc(-c2nc(NC3CCN(S(=O)(=O)C4CC4)CC3)ncc2C(F)(F)F)cn1"
  assaySystem: "Cytochrome P450 2C19 (Homo sapiens, UniProt P33261)"
  recordedResult: "> 25 µM"

====

# maps each entry to its half-life
# measurementNotes: Half-life in Sprague-Dawley rat at 0.5 mg/kg, iv administered as cassette dose and measured upto 24 hrs by LC-MS/MS analysis
# Format: ADME, organism-based
# experimentalSetup: in vivo
reportedMetric: half-life (h)

- molecularString: "CC(C)(O)Cn1cc(-c2nc(NC3CCN(S(=O)(=O)C4CC4)CC3)ncc2C(F)(F)F)cn1"
  reportedMetric: "half-life"
  unitSpec: "h"
  recordedResult: 2
- molecularString: "CNCc1ccc(-n2cc(-c3nc(NC4CCN(S(C)(=O)=O)CC4)ncc3C#N)cn2)c(Cl)c1"
  reportedMetric: "half-life"
  unitSpec: "h"
  recordedResult: 3.8
